// data source = the supplement of paper PMC10899765

Please respond with reported percent viability for every item in the list.
- Test system: MCF10A
- ASSAY NOTES: percent viability (nuclei count relative to siNT); higher = more viable cells
- SETUP CONDITIONS: 20 nM; 72 h
Write the value in % as a bare number.

I would be grateful if you could share the reported percent viability for AGAGGUAUAGGGCAUGGGAA [hsa-miR-202-3p] .
42.3

I would be grateful if you could share the reported percent viability for UGGGGCGGAGCUUCCGGAGGCC [hsa-miR-3180-3p] .
12.9

I would be grateful if you could share the reported percent viability for AGGGGGUAGAAAGUGGCUGAAG [hsa-miR-6835-5p] .
14.9

I would be grateful if you could share the reported percent viability for ACUGGACUAGGAGUCAGAAGG [hsa-miR-378i] .
32.1

I would be grateful if you could share the reported percent viability for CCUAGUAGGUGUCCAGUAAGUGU [hsa-miR-325] .
58

I would be grateful if you could share the reported percent viability for CGUCAACACUUGCUGGUUUCCU [hsa-miR-505-3p] .
33.8

I would be grateful if you could share the reported percent viability for GGAGGUUGGGAAGGGCAGAG [hsa-miR-6086] .
69.1

I would be grateful if you could share the reported percent viability for UGUGUACACACGUGCCAGGCGCU [hsa-miR-3177-5p] .
131

I would be grateful if you could share the reported percent viability for AAGGCAGGGCCCCCGCUCCCC [hsa-miR-940] .
12.8

I would be grateful if you could share the reported percent viability for CAAAAACCGGCAAUUACUUUUG [hsa-miR-548ac] .
72.6

I would be grateful if you could share the reported percent viability for GGUAGAUUUUCCUUCUAUGGU [hsa-miR-376a-2-5p] .
71.5

I would be grateful if you could share the reported percent viability for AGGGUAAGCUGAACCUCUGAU [hsa-miR-555] .
32.4

###

- System: MCF10A
- ASSAY NOTES: percent viability (nuclei count relative to siNT); higher = more viable cells
- SETUP CONDITIONS: 20 nM; 72 h
Please respond with reported percent viability for every item in the list.
Write the value in % as a bare number.

I would be grateful if you could share the reported percent viability for UCUGAAAGAGCAGUUGGUGUU [hsa-miR-4766-5p] .
56.2

I would be grateful if you could share the reported percent viability for GGUCUAGGCCCGGUGAGAGACUC [hsa-miR-8078] .
21

I would be grateful if you could share the reported percent viability for CACCCCCUGUUUCCUGGCCCAC [hsa-miR-4640-3p] .
127

I would be grateful if you could share the reported percent viability for CCUAAUUUGAACACCUUCGGUA [hsa-miR-4735-5p] .
80.8

I would be grateful if you could share the reported percent viability for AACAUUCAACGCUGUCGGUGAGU [hsa-miR-181a-5p] .
76.4

I would be grateful if you could share the reported percent viability for UAAUACUGCCGGGUAAUGAUGGA [hsa-miR-200c-3p] .
104

###

- Test system: MCF10A
- ASSAY NOTES: 5+ nucleoli phenotype percent effect (relative to siNT 0% and siKIF11 100%); higher = more cells with five or more nucleoli
- SETUP CONDITIONS: 20 nM; 72 h
Please respond with reported 5+ nucleoli phenotype percent effect for every item in the list.
Write the value in % as a bare number.

I would be grateful if you could share the reported 5+ nucleoli phenotype percent effect for AAAUCUCUGCAGGCAAAUGUGA [hsa-miR-216b] .
44.2

I would be grateful if you could share the reported 5+ nucleoli phenotype percent effect for AAGGGGGAAGGAAACAUGGAGA [hsa-miR-4716-3p] .
-6.04

I would be grateful if you could share the reported 5+ nucleoli phenotype percent effect for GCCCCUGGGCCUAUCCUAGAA [hsa-miR-331-3p] .
8.19

I would be grateful if you could share the reported 5+ nucleoli phenotype percent effect for AGUUUGGGAUGGAGAGAGGAGA [hsa-miR-6740-5p] .
24.1

I would be grateful if you could share the reported 5+ nucleoli phenotype percent effect for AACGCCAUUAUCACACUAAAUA [hsa-miR-122-3p] .
35.4

I would be grateful if you could share the reported 5+ nucleoli phenotype percent effect for CAAUGUGAUCUUUUGGAUGUA [hsa-miR-8066] .
-37.9

I would be grateful if you could share the reported 5+ nucleoli phenotype percent effect for AGCACACUGAGCGAGCGGAC [hsa-miR-8064] .
-14.8

I would be grateful if you could share the reported 5+ nucleoli phenotype percent effect for CAGCAGGAGGUGAGGGGAG [hsa-miR-6165] .
36.7

I would be grateful if you could share the reported 5+ nucleoli phenotype percent effect for UGUAGAGCAGGGAGCAGGAAGCU [hsa-miR-4732-5p] .
-0.0062

I would be grateful if you could share the reported 5+ nucleoli phenotype percent effect for UACUGCAGACAGUGGCAAUCA [hsa-miR-509-5p] .
5.43

I would be grateful if you could share the reported 5+ nucleoli phenotype percent effect for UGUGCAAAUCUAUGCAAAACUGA [hsa-miR-19a-3p] .
34.4

I would be grateful if you could share the reported 5+ nucleoli phenotype percent effect for UAACAAACACCUGUAAAACAGC [hsa-miR-5688] .
22.5

I would be grateful if you could share the reported 5+ nucleoli phenotype percent effect for AAAAGCAUCAGGAAGUACCCA [hsa-miR-4422] .
2.92

I would be grateful if you could share the reported 5+ nucleoli phenotype percent effect for UGGCUUUUAACUUUGAUGGC [hsa-miR-3119] .
-21.8

I would be grateful if you could share the reported 5+ nucleoli phenotype percent effect for UGGCAGGGAGGCUGGGAGGGG [hsa-miR-1207-5p] .
-30.5

I would be grateful if you could share the reported 5+ nucleoli phenotype percent effect for UAACAUAAUAGUGUGGAUUGA [hsa-miR-4803] .
40.9

I would be grateful if you could share the reported 5+ nucleoli phenotype percent effect for AAGGCAGGGCCCCCGCUCCCC [hsa-miR-940] .
-29.5

I would be grateful if you could share the reported 5+ nucleoli phenotype percent effect for CGUGGAGGACGAGGAGGAGGC [hsa-miR-7847-3p] .
-7.84

I would be grateful if you could share the reported 5+ nucleoli phenotype percent effect for AGGUUGCCUGUGAGGUGUUCA [hsa-miR-656-5p] .
-1.12

I would be grateful if you could share the reported 5+ nucleoli phenotype percent effect for UACUUGGAAAGGCAUCAGUUG [hsa-miR-890] .
-34.1

I would be grateful if you could share the reported 5+ nucleoli phenotype percent effect for UCUGCACUGUGAGUUGGCUGGCU [hsa-miR-4793-3p] .
-3.16

I would be grateful if you could share the reported 5+ nucleoli phenotype percent effect for UAGUGGAUGAUGCACUCUGUGC [hsa-miR-3681-5p] .
-13.2

I would be grateful if you could share the reported 5+ nucleoli phenotype percent effect for ACCUUCUUGUAUAAGCACUGUGCUAAA [hsa-miR-1248] .
33.1

I would be grateful if you could share the reported 5+ nucleoli phenotype percent effect for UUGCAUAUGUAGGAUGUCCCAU [hsa-miR-448] .
34

###

- Tested on: MCF10A
- ASSAY NOTES: 5+ nucleoli phenotype percent effect (relative to siNT 0% and siKIF11 100%); higher = more cells with five or more nucleoli
- SETUP CONDITIONS: 20 nM; 72 h
Please respond with reported 5+ nucleoli phenotype percent effect for every item in the list.
Write the value in % as a bare number.

I would be grateful if you could share the reported 5+ nucleoli phenotype percent effect for CCUGGAAACACUGAGGUUGUG [hsa-miR-875-3p] .
37.4

I would be grateful if you could share the reported 5+ nucleoli phenotype percent effect for UGGGGAGGUGUGGAGUCAGCAU [hsa-miR-6825-5p] .
1.61

I would be grateful if you could share the reported 5+ nucleoli phenotype percent effect for ACACCCUCUUUCCCUACCGCC [hsa-miR-6865-3p] .
40.5

I would be grateful if you could share the reported 5+ nucleoli phenotype percent effect for UGCUGGAUCAGUGGUUCGAGUC [hsa-miR-1287] .
-26.2

I would be grateful if you could share the reported 5+ nucleoli phenotype percent effect for ACGGAUGUUUGAGCAUGUGCUA [hsa-miR-105-3p] .
12.2

I would be grateful if you could share the reported 5+ nucleoli phenotype percent effect for UAUAGAGAGCAGGAAGAUUAAUGU [hsa-miR-3976] .
31.2

###

- System: MCF10A
- ASSAY NOTES: nucleolar rRNA biogenesis percent inhibition (5-EU; siNT 0%, siPOLR1A 100%); higher = stronger inhibition of nucleolar rRNA biogenesis
- SETUP CONDITIONS: 20 nM; 72 h
Please respond with reported nucleolar rRNA biogenesis percent inhibition for every item in the list.
Write the value in % as a bare number.

Please provide the recorded nucleolar rRNA biogenesis percent inhibition for AGUGUGGCUUUCUUAGAGC [hsa-miR-644a] , tested on MCF10A.
101

Please provide the recorded nucleolar rRNA biogenesis percent inhibition for CUAGGGGGUUUGCCCUUG [hsa-miR-4278] , tested on MCF10A.
45.6

Please provide the recorded nucleolar rRNA biogenesis percent inhibition for CCCCACCUCCUCUCUCCUCAG [hsa-miR-1224-3p] , tested on MCF10A.
22.4

Please provide the recorded nucleolar rRNA biogenesis percent inhibition for AGGAGCAGUGCCGGCCAAGGCGCC [hsa-miR-6081] , tested on MCF10A.
57.3

Please provide the recorded nucleolar rRNA biogenesis percent inhibition for CAUCUGGCAUCCGUCACACAGA [hsa-miR-3126-3p] , tested on MCF10A.
22.1

Please provide the recorded nucleolar rRNA biogenesis percent inhibition for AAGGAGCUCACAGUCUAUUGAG [hsa-miR-28-5p] , tested on MCF10A.
0.18

Please provide the recorded nucleolar rRNA biogenesis percent inhibition for UAUGGCACUGGUAGAAUUCACU [hsa-miR-183-5p] , tested on MCF10A.
33.5

Please provide the recorded nucleolar rRNA biogenesis percent inhibition for UGAAUGGUAAAGCGAUGUCACA [hsa-miR-4790-3p] , tested on MCF10A.
105

Please provide the recorded nucleolar rRNA biogenesis percent inhibition for UGGAGUCCAGGAAUCUGCAUUUU [hsa-miR-1289] , tested on MCF10A.
68.1

Please provide the recorded nucleolar rRNA biogenesis percent inhibition for CAAUGGCACAAACUCAUUCUUGA [hsa-miR-5197-5p] , tested on MCF10A.
16.5

Please provide the recorded nucleolar rRNA biogenesis percent inhibition for GGCUGGGUGCUCUUGUGCAGU [hsa-miR-5589-5p] , tested on MCF10A.
70

Please provide the recorded nucleolar rRNA biogenesis percent inhibition for UGAAGGUCUACUGUGUGCCAGG [hsa-miR-493-3p] , tested on MCF10A.
69.3
